Test system: 323965-272-R-J2-PDC complex spheroid viability
Experiment: Anticancer human tumor 323965-272-R-J2-PDC patient-derived pancreatic carcinoma cell line growth inhibition [CLK]
Details: second compound 0.0316 µM; first compound 0.0316 µM; hits give low values
Measured viability, T/C of individual entries
Measure Name: viability, T/C (%)

O=c1[nH]cc(F)c(=O)[nH]1 + CNC(=O)c1ccc(Nc2nc(OC3CCCC3)c3c(-c4ccc5nc(C)oc5c4)c[nH]c3n2)c(OC)c1: 84.2
Nc1ccccc1NC(=O)c1ccc(CNC(=O)OCc2cccnc2)cc1 + CNC(=O)c1ccc(Nc2nc(OC3CCCC3)c3c(-c4ccc5nc(C)oc5c4)c[nH]c3n2)c(OC)c1: 112
CCc1c2c(nc3ccc(O)cc13)-c1cc3c(c(=O)n1C2)COC(=O)[C@]3(O)CC + CNC(=O)c1ccc(Nc2nc(OC3CCCC3)c3c(-c4ccc5nc(C)oc5c4)c[nH]c3n2)c(OC)c1: 33

* * *

Test system: 323965-272-R-J2-PDC complex spheroid viability
Assay: Anticancer human tumor 323965-272-R-J2-PDC cell line growth inhibition [CLK]; active = viability on the fitted dose curve at most 10% of control; inactive = the rest;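 also: spheroids exposed to agents for seven days before readout; percent of DMSO vehicle control wells so 100% = untreated growth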
Conditions: second compound 10 µM; first compound 0.03 µM
Classes used: y for active, n for inactive

NC(=O)C(=Cn1cnc(-c2cc(C(F)(F)F)cc(C(F)(F)F)c2)n1)c1cncnc1 + CNC(=O)c1ccc(Nc2nc(OC3CCCC3)c3c(-c4ccc5nc(C)oc5c4)c[nH]c3n2)c(OC)c1: n
CC(C)CC(NC(=O)C(Cc1ccccc1)NC(=O)c1cnccn1)B(O)O (stereo unspecified) + CNC(=O)c1ccc(Nc2nc(OC3CCCC3)c3c(-c4ccc5nc(C)oc5c4)c[nH]c3n2)c(OC)c1: y
NC(=O)C(=Cn1cnc(-c2cc(C(F)(F)F)cc(C(F)(F)F)c2)n1)c1cncnc1 + CN1CCN(c2cc(C(=O)Nc3cc4cc(-c5cnn(C)c5)ccc4cn3)ccn2)CC1: y
C=CC(=O)Nc1cc(Nc2nccc(-c3cn(C)c4ccccc34)n2)c(OC)cc1N(C)CCN(C)C + CN1CCN(c2cc(C(=O)Nc3cc4cc(-c5cnn(C)c5)ccc4cn3)ccn2)CC1: y
C=CC(=O)Nc1cc(Nc2nccc(-c3cn(C)c4ccccc34)n2)c(OC)cc1N(C)CCN(C)C + CNC(=O)c1ccc(Nc2nc(OC3CCCC3)c3c(-c4ccc5nc(C)oc5c4)c[nH]c3n2)c(OC)c1: n
CC(C)CC(NC(=O)C(Cc1ccccc1)NC(=O)c1cnccn1)B(O)O (stereo unspecified) + CN1CCN(c2cc(C(=O)Nc3cc4cc(-c5cnn(C)c5)ccc4cn3)ccn2)CC1: y

* * *

Test system: 323965-272-R-J2-PDC complex spheroid viability
Experiment: Anticancer human tumor 323965-272-R-J2-PDC cell line growth inhibition [CLK];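 also: spheroids exposed to agents for seven days before readout; percent of DMSO vehicle control wells so 100% = untreated growth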
Conditions: second compound 10 µM; first compound 0.01 µM; hits give low values
Measured viability, T/C of individual entries
Measure Name: viability, T/C (%)

COc1c(OCCCN2CCOCC2)ccc2c3n(c(=NC(=O)c4cnc(N)nc4)nc12)CCN3 + CNC(=O)c1ccc(Nc2nc(OC3CCCC3)c3c(-c4ccc5nc(C)oc5c4)c[nH]c3n2)c(OC)c1: 32.7
CCN1CCN(Cc2ccc(Nc3ncc(F)c(-c4cc(F)c5nc(C)n(C(C)C)c5c4)n3)nc2)CC1 + CN1CCN(c2cc(C(=O)Nc3cc4cc(-c5cnn(C)c5)ccc4cn3)ccn2)CC1: 4.01
CCN1CCN(Cc2ccc(Nc3ncc(F)c(-c4cc(F)c5nc(C)n(C(C)C)c5c4)n3)nc2)CC1 + CNC(=O)c1ccc(Nc2nc(OC3CCCC3)c3c(-c4ccc5nc(C)oc5c4)c[nH]c3n2)c(OC)c1: 46.4
COc1c(OCCCN2CCOCC2)ccc2c3n(c(=NC(=O)c4cnc(N)nc4)nc12)CCN3 + CN1CCN(c2cc(C(=O)Nc3cc4cc(-c5cnn(C)c5)ccc4cn3)ccn2)CC1: 3.87
Cn1ncnc1[C@H]1c2n[nH]c(=O)c3cc(F)cc(c23)N[C@@H]1c1ccc(F)cc1 + CNC(=O)c1ccc(Nc2nc(OC3CCCC3)c3c(-c4ccc5nc(C)oc5c4)c[nH]c3n2)c(OC)c1: 45.7
CCc1c2c(nc3ccc(O)cc13)-c1cc3c(c(=O)n1C2)COC(=O)[C@]3(O)CC + CNC(=O)c1ccc(Nc2nc(OC3CCCC3)c3c(-c4ccc5nc(C)oc5c4)c[nH]c3n2)c(OC)c1: 23.6
Cn1ncnc1[C@H]1c2n[nH]c(=O)c3cc(F)cc(c23)N[C@@H]1c1ccc(F)cc1 + CN1CCN(c2cc(C(=O)Nc3cc4cc(-c5cnn(C)c5)ccc4cn3)ccn2)CC1: 4.13
